target under test: T1, SCREAM (SCRM), recombinant full-length protein (1-494) (A. thaliana, UniProt Q9LSE2 1-494)
T1 construct: SCRM (ICE1), A. thaliana, residues 1-494; called full-length in the results; The methods describe thrombin removal of GST for all recombinant proteins; For the BLI runs of SCRM with MUTE one partner must have kept GST (anti-GST probes); also called ICE1; source: E. coli BL21, purified (glutathione resin, thrombin digestion, Superdex-200); not shown: GST, N-terminal, cleaved
T1 sequence (looked up): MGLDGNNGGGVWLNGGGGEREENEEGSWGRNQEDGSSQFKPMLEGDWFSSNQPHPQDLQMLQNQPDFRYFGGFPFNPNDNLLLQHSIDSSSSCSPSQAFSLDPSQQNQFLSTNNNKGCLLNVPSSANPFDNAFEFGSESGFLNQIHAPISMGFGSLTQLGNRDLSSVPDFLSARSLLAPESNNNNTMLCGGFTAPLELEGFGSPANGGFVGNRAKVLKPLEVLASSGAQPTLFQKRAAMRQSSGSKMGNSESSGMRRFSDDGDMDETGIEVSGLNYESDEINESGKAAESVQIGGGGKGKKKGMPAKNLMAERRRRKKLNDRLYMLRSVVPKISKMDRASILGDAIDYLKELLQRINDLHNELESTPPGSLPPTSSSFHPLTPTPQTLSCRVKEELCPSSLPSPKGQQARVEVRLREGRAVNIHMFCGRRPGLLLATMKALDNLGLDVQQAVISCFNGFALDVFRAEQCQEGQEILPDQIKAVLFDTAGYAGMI
protocol: BLI; SCRM with MUTE or MUTE mutants in the presence of Stomidazolone (3) (MUTE pre-incubated); Octet Red96, anti-GST probes loaded with 500 nM GST-tagged protein; 30 °C; 1x PBS, 2% DMSO, 0.02% Tween20; 1:1 model; KD (SS) from steady-state analysis
recorded conditions: both partners purified
attribute measured: kon (M⁻¹ s⁻¹)
One number for each entry, in M⁻¹ s⁻¹.

Take a look at these entries with their results.
[[record]]
binder = "MUTE_E162A_E163A, recombinant (natural protein, A. thaliana, UniProt Q9M8K6 1-202, looked up, MUTE, A. thaliana, with E162A and E163A; source: E. coli BL21, purified (glutathione resin)) MSHIAVERNRRRQMNEHLKSLRSLTPCFYIKRGDQASIIGGVIEFIKELQQLVQVLESKKRRKTLNRPSFPYDHQTIEPSSLGAATTRVPFSRIENVMTTSTFKEVGACCNSPHANVEAKISGSNVVLRVVSRRIVGQLVKIISVLEKLSFQVLHLNISSMAATVLYFFVVKIGLECHLSLEELTLEVQKSFVSDEVIVSTN"
units = "M⁻¹ s⁻¹"
value = 20700

[[record]]
binder = "MUTE_R133A_R134A_E162A_E163A, recombinant (natural protein, A. thaliana, UniProt Q9M8K6 1-202, looked up, MUTE, A. thaliana, with R133A, R134A, E162A and E163A; source: E. coli BL21, purified (glutathione resin)) MSHIAVERNRRRQMNEHLKSLRSLTPCFYIKRGDQASIIGGVIEFIKELQQLVQVLESKKRRKTLNRPSFPYDHQTIEPSSLGAATTRVPFSRIENVMTTSTFKEVGACCNSPHANVEAKISGSNVVLRVVSAAIVGQLVKIISVLEKLSFQVLHLNISSMAATVLYFFVVKIGLECHLSLEELTLEVQKSFVSDEVIVSTN"
units = "M⁻¹ s⁻¹"
value = 3480

[[record]]
binder = "MUTE_R133A_R134A, recombinant (natural protein, A. thaliana, UniProt Q9M8K6 1-202, looked up, MUTE, A. thaliana, with R133A and R134A; source: E. coli BL21, purified (glutathione resin)) MSHIAVERNRRRQMNEHLKSLRSLTPCFYIKRGDQASIIGGVIEFIKELQQLVQVLESKKRRKTLNRPSFPYDHQTIEPSSLGAATTRVPFSRIENVMTTSTFKEVGACCNSPHANVEAKISGSNVVLRVVSAAIVGQLVKIISVLEKLSFQVLHLNISSMEETVLYFFVVKIGLECHLSLEELTLEVQKSFVSDEVIVSTN"
units = "M⁻¹ s⁻¹"
value = 13300


API: the following record is the query input.
// query kon value for entry MUTE, recombinant full-length protein (1-202), as used in BLI with SCRM (natural protein, A. thaliana, UniProt Q9M8K6 1-202, looked up, BLI probes were anti-GST and loaded with 500 nM GST-tagged protein; source: E. coli BL21, purified (glutathione resin)) MSHIAVERNRRRQMNEHLKSLRSLTPCFYIKRGDQASIIGGVIEFIKELQQLVQVLESKKRRKTLNRPSFPYDHQTIEPSSLGAATTRVPFSRIENVMTTSTFKEVGACCNSPHANVEAKISGSNVVLRVVSRRIVGQLVKIISVLEKLSFQVLHLNISSMEETVLYFFVVKIGLECHLSLEELTLEVQKSFVSDEVIVSTN
11400
